Assay: logP by HPLC on reversed-phase columns (C 18), EEC directive 79/831 Annex V.A8
Format: physicochemical
Conditions: LC-MS, acidic range, pH 2.7, 0.1% aqueous formic acid and acetonitrile
Please go through the items and note down their Log P [a].

Please indicate Log P [a] recorded for Cc1cc(C(F)F)nn1CC(=O)N1CCC(c2nc(C3=NOC(c4c(F)cccc4OCC4CC4)C3)cs2)CC1 (centres unmarked)
3.44[a]

Please indicate Log P [a] recorded for C=CCOc1cc(Cl)cc(Cl)c1C1CC(c2csc(C3CCN(C(=O)Cn4nc(C(F)F)cc4C)CC3)n2)=NO1 (centres unmarked)
3.95[a];

Please indicate Log P [a] recorded for C=CCOc1cccc(F)c1C1CC(c2csc(C3CCN(C(=O)Nc4cc(C)ccc4C)CC3)n2)=NO1 (centres unmarked)
3.64[a];

Please indicate Log P [a] recorded for C=CCOc1cccc(Cl)c1C1CC(c2csc(C3CCN(C(=O)Cn4nc(C(F)(F)F)cc4C)CC3)n2)=NO1 (racemic)
3.94[a];

Please indicate Log P [a] recorded for Cc1cc(C(F)(F)F)nn1CC(=O)N1CCC(c2nc(C3=NOC(c4cccc(OC(=O)C5CC5)c4)C3)cs2)CC1 (racemic)
3.53[a];

Please indicate Log P [a] recorded for C#CCOc1cccc(Cl)c1C1CC(c2csc(C3CCN(C(=O)Cn4nc(C(F)(F)F)cc4C)CC3)n2)=NO1 (centres unmarked)
3.62[a];

Please indicate Log P [a] recorded for CC[S+]([O-])Cc1ccccc1C1CC(c2csc(C3CCN(C(=O)Cn4nc(C(F)(F)F)cc4C)CC3)n2)=NO1 (mixture of isomers)
2.53[a]

Please indicate Log P [a] recorded for C=CCOc1ccccc1C1CC(c2csc(C3CCN(C(=O)Cn4nc(C)cc4C(F)F)CC3)n2)=NO1 (centres unmarked)
3.42[a];

Please indicate Log P [a] recorded for Cc1cc(C(F)(F)F)nn1CC(=O)N1CCC(c2nc(C3=NOC(c4c(Cl)cccc4OC(=O)C4CC4)C3)cs2)CC1 (racemic)
3.73[a];

Please indicate Log P [a] recorded for C=CCOc1cccc(C2CC(c3csc(C4CCN(C(=O)Cn5nc(C(F)(F)F)cc5C)CC4)n3)=NO2)c1 (racemic)
3.62[a];

Please indicate Log P [a] recorded for COc1ccc(C2CC(c3csc(C4CCN(C(=O)Cn5nc(C(F)F)cc5C)CC4)n3)=NO2)c(OCC2CC2)c1 (centres unmarked)
3.5[a]

Please indicate Log P [a] recorded for C#CCOc1cc(C)ccc1C1CC(c2csc(C3CCN(C(=O)Cn4nc(C(F)F)cc4C)CC3)n2)=NO1 (centres unmarked)
3.23[a];

Please indicate Log P [a] recorded for COCCOc1cccc(F)c1C1CC(c2csc(C3CCN(C(=O)Cn4nc(C(F)(F)F)cc4C)CC3)n2)=NO1 (racemic)
3.28[a];

Please indicate Log P [a] recorded for O=C(Cn1nc(C(F)(F)F)cc1C(F)(F)F)N1CCC(c2nc(C3=NOC(c4ccccc4OCC4CC4)C3)cs2)CC1 (centres unmarked)
4.59[a]

Values from patent US9512117B2
